This listing pairs binders with measured MFI Ratio.
Molecular target: SARS-CoV-2 membrane protein on expressing cells (SARS-CoV-2, UniProt P0DTC5 1-222)
Please reply with the value in numeric form only.

binder: 10-11 (VHH) VHH: EVQLVESGGGLVQPGGSLRLSCAASGRNFRRNSMGWFRQAPGKEREFVAGISWSGARTHYADSVKGRFTISADNSKNTAYLQMNSLKPEDTAVYYCARVSRRPRSPPGYYYGMDVWGQGTLVTVSS
recorded.endpoint: MFI Ratio
result.value: 1.56

binder: 10-47 (VHH) VHH: EVQLVESGGGLVQPGGSLRLSCAASGRPLRRYVMGWFRQAPGKEREFVAAITNGGSTKYADSVKGRFTISADNSKNTAYLQMNSLKPEDTAVYYCARGTPWRLLWFGTLGPPPAFDYWGQGTLVTVSS
recorded.endpoint: MFI Ratio
result.value: 1.62

Would you kindly share the measured MFI Ratio for 10-17 (VHH) VHH: EVQLVESGGGLVQPGGSLRLSCAASGRTFSIYAMGWFRQAPGKEREFVARITRGGITKYADSVKGRFTISADNSKNTAYLQMNSLKPEDTAVYYCARGLGWLLGYYWGQGTLVTVSS ?
1.59

Item 10-29 (VHH) VHH: EVQLVESGGGLVQPGGSLRLSCAASGRTFTSYRMGWFRQAPGKEREFVAEISSSGGYTYYADSVKGRFTISADNSKNTAYLQMNSLKPEDTAVYYCARVGPLRFLAQRPRLRPDYWGQGTLVTVSS has what recorded MFI Ratio?
1.48

Which value of MFI Ratio has been reported for 10-42 (VHH) VHH: EVQLVESGGGLVQPGGSLRLSCAASGITIRTHAMGWFRQAPGKEREFVATISRSGGNTYYADSVKGRFTISADNSKNTAYLQMNSLKPEDTAVYYCTTAGVLRYFDWFRRPYWGQGTLVTVSS in the records?
1.74

State the recorded MFI Ratio for this entry: 10-1 (VHH) VHH: EVQLVESGGGLVQPGGSLRLSCAASGLSSPPFDDFPMGWFRQAPGKEREFVSSIYSDDGDSMYADSVKGRFTISADNSKNTAYLQMNSLKPEDTAVYYCARQTFDFWSASLGGNFWYFDLWGQGTLVTVSS
1.08

So what does the record say about MFI Ratio for 10-45 (VHH) VHH: EVQLVESGGGLVQPGGSLRLSCAASGRTFSWYPMGWFRQAPGKEREFVASISWGGARTYYADSVKGRFTISADNSKNTAYLQMNSLKPEDTAVYYCARSTGPRGSGRYRAHWFDSWGQGTLVTVSS ?
6.69

# MFI Ratio lookup, item 9-6 (VHH) VHH: EVQLVESGGGLVQPGGSLRLSCAASGRTFSRFAMGWFRQAPGKEREFVAAIRWSGGRTVYADSVKGRFTISADNSKNTAYLQMNSLKPEDTAVYYCAIEPGTIRNWRNRVPFARGNFGWGQGTLVTVSS
1.47

Reference source for all entries: patent US20210355194A1
